System: U251 CNS
procedure-details: NCI tumour cell line growth inhibition, 48 h
value-kind: TGI

The cases that follow already have their TGI on record.
1. CC(C)Nc1[nH]c(C(=O)c2ccccc2)c(N)c1C(=S)Nc1ccccc1 :: > 100 µM
2. CCOc1cc(/C=N\N(C)C)cc(/C=N\N(C)C)c1O :: 89.9 µM

Let us move to another entry and its TGI.
Please tell me the measured TGI for CC(=O)OC1/C(=C/c2ccc([N+](=O)[O-])cc2)C[C@H]2[C@@H]3CC=C4C[C@@H](OC(C)=O)CC[C@]4(C)[C@H]3CC[C@]12C (stereo partly drawn) ; system: U251 CNS. > 100 µM

----------
Test system: HCC-2998 colon
procedure-details: NCI tumour cell line growth inhibition, 48 h; in the data active = GI50 below about 0.43 µM; inactive = the rest
Tick one outcome: T (active), F (inactive)

See these solved cases before continuing.
1) O=C(c1ccccc1)c1nn(-c2ccc(Cl)cc2)c2nc3nc(-c4ccccc4)cc(=O)n3nc12 :: F
2) COc1ccc(/C=C2\CN(C(=O)CCN3CCC(=NO)CC3)C/C(=C\c3ccc(OC)cc3)C2=O)cc1 :: F
3) Cc1ccc(S(=O)(=O)NC(CCC(=O)Nc2ccc(Cl)cc2)C(=O)Nc2ccc(Cl)cc2)cc1 (centres undefined) :: F
4) O=C1c2cc3c(cc2-c2c1c1cc(Cl)c(Cl)cc1c(=O)n2CCCn1ccnc1)OCO3 :: T
5) Nc1ccn(C=C=CCO)c(=O)n1 :: F

Test call, this compound: COc1ccccc1C(=O)/C=C/c1cc2cccc(OC)c2[nH]c1=O T

Test call, this compound: COc1cc(-c2cc(C(=O)N3CCN(C(=O)c4ccccc4NCc4ccco4)CC3)nc3cc(-c4ccccc4)nn23)cc(OC)c1OC F

Test call, this compound: O/N=C1\CCc2cc(-c3nc(C4CCNCC4)[nH]c3-c3ccncc3)ccc21 F

Test call, this compound: O=C(c1cccs1)c1c(C(F)(F)F)n([O-])c2ccc(C(F)(F)F)cc2[n+]1=O F

----------
Quick reference for GI50 among some compounds
Tested on: 786-0 renal
procedure-details: NCI tumour cell line growth inhibition, 48 h

The cases that follow already have their GI50 on record.
1. CC1(C)CC(=O)C2=C(C1)NC(SSC1=C(C#N)C(c3ccccc3)C3=C(CC(C)(C)CC3=O)N1)=C(C#N)C2c1ccccc1 (stereo not drawn) :: 28.4 µg/mL
2. COC(=O)[C@]12CC[C@@H](C)[C@H](C)[C@@H]1C1=CC[C@@H]3[C@@]4(C)CC(=O)[C@H](O)[C@@]5(C)COC(=C45)C[C@@]3(C)[C@]1(C)CC2 :: 17.8 µM
3. O=C1C=C[C@]2(C[C@@H](c3cccc(C(F)(F)F)c3)O[C@@H](c3cccc(C(F)(F)F)c3)O2)O1 :: 1.35 µM
4. CC(=O)c1ccc(Nc2cc(-n3ccnc3)nc3ccccc23)cc1 :: 7.86 µM
5. C[C@@H](c1ccc2nccn2c1)n1nnc2ncc(-c3cnn(C)c3)nc21 :: > 100 µM
6. O=C(CCCc1c[nH]c2ccccc12)NC1CC(=O)c2c(Br)sc(Br)c21 (stereo not drawn) :: 19.2 µM

// Input: COC(=O)c1cnc(=O)n(C2CC(O)C(CO)O2)c1 (stereo not drawn) . Output its GI50 only. > 100 µM

// Input: COc1ccc(-c2cc(-c3ccc(Nc4nc(Nc5ccc(Cl)cc5)nc(Nc5ccc(Cl)cc5)n4)cc3)nc(N)c2C#N)cc1 . Output its GI50 only. 2.24 µM

All values here come from PubChem BioAssay (NCI).
